Target: UniProt P29274
Test: cAMP assay in 293A cells stably expressing the adenosine A2A receptor (CGS21680 stimulation, HTRF)
Type: cell-based
Design: expressed in transfected cells; host or cells: 293A cells (Invitrogen, Cat# R705-07) infected with A2A-expressing lentivirus (custom packaged by Biosettia), puromycin selected
Conditions: 293A-A2AR cells, 0.1% BSA, 1 uM CGS; read-out: cAMP (nM) 0.1% BSA, 1 uM CGS
observed-property: IC50 (nM)

# count of solved cases: 3
What does the record list as IC50 for `Cc1cc(-c2c(OCc3cccc(N4CCC[C@@H]4C(=O)O)n3)nc(N)nc2-c2ccc(F)cc2)cc(C(F)F)n1` ?
19700

Recorded IC50 of `CCn1c(COc2nc(N)nc(-c3ccc(F)cc3)c2-c2cc(C)nc(C(F)F)c2)nc2c(C(=O)O)cccc21` , please.
10300

What does the record list as IC50 for `Cc1cc(-c2c(OCc3cccc(N4CC[C@@H](C(=O)O)C4)n3)nc(N)nc2-c2ccc(F)cc2)cc(C(F)F)n1` ?
2490

[P] Cc1cc(-c2c(OCc3nc4ccccc4s3)nc(N)nc2-c2ccc(F)cc2)cc(C(F)F)n1
[Q] Cc1cc(-c2c(OCCCCO)nc(N)nc2-c2ccc(F)cc2)cc(C(F)F)n1
Which value of IC50 is greater, the one for P or the one for Q ? Reply briefly: the label of your chosen item.
P

---

Biological target: Adenosine A2A receptor (Homo sapiens, UniProt P29274)
Sequence (P29274 whole entry): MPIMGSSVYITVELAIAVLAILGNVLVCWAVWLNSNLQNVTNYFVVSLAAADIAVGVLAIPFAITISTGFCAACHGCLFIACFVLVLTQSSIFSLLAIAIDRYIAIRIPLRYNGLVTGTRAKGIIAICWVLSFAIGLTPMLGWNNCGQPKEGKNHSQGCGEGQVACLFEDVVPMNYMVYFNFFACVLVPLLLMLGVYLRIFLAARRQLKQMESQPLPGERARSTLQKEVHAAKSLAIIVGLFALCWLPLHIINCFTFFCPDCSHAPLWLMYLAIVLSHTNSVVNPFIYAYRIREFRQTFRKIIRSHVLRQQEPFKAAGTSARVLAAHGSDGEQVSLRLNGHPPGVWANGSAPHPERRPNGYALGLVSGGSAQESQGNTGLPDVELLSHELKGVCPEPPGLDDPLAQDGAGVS
Test: Adenosine A2A receptor competitive binding assay (Tag-lite HTRF)
Conditions: Tag-lite adenosine A2A receptor ligand binding, 2 h room temperature; values separated by / are repeat determinations
pIC50: −log10 of the molar value.
observed-property: pIC50

Give its pIC50 value. Item: CCNCCOc1nc(N)nc(-c2ccc(F)cc2)c1-c1cc(C)nc(C(F)F)c1 [Example 65]
7.38

[P] Cc1cc(-c2c(OCC(=O)NCC3CCOCC3)nc(N)nc2-c2ccc(F)cc2)cc(C(F)F)n1 [Example 160]
[Q] Cc1cc(-c2c(OCC3(CO)CCOCC3)nc(N)nc2-c2ccc(F)cc2)cc(C(F)F)n1 [Example 125]
[R] COC(=O)Nc1ccc(CCOc2nc(N)nc(-c3ccc(F)cc3)c2-c2cc(C)nc(C(F)F)c2)cc1 [Example 72]
[S] Cc1cc(-c2c(OCCN3CCN(C)CC3)nc(N)nc2-c2ccc(F)cc2)cc(C(F)F)n1 [Example 35]
Sort the 4 compounds by pIC50; largest first, smallest last. Please write the labels in the order that was asked for.
Q, R, S, P
(Q: 7.74, R: 7.39, S: 6.90, P: 6.47)

[I] Cc1cc(-c2c(C(=O)NCc3cccc(C(C)C)n3)nc(N)nc2-c2ccc(F)cc2)cc(C(F)F)n1 [Example 108]
[II] COC(=O)N1CCC(COc2nc(N)nc(-c3ccc(F)cc3)c2-c2cc(C)nc(C(F)F)c2)CC1 [Example 106]
Smaller pIC50 value? Options are I and II In your reply, give the label of the chosen option.
I
(I: 6.65, II: 7.42)

[I] Cc1cc(-c2c(OCC(=O)NCCCS(C)(=O)=O)nc(N)nc2-c2ccc(F)cc2)cc(C(F)F)n1 [Example 50]
[II] Cc1cc(-c2c(OCC(=O)NCC(C)(F)F)nc(N)nc2-c2ccc(F)cc2)cc(C(F)F)n1 [Example 162]
Lab note: check whether I or II shows the higher recorded pIC50. Your answer should be the label attached to the chosen record.
II
(II: 7.68, I: 6.27)

[P] Cc1cc(-c2c(OCc3n[nH]cc3C(C)C)nc(N)nc2-c2ccc(F)cc2)cc(C(F)F)n1 [Example 183]
[Q] Cc1cc(-c2c(OCC3COC3)nc(N)nc2-c2ccc(F)cc2)cc(C(F)F)n1 [Example 37]
[R] Cc1cc(-c2c(OCc3nccn3C3COC3)nc(N)nc2-c2ccc(F)cc2)cc(C(F)F)n1 [Example 171]
[S] Cc1cc(-c2c(OCC3(F)CCOCC3)nc(N)nc2-c2ccc(F)cc2)cc(C(F)F)n1 [Example 102]
Rank the 4 compounds: largest pIC50 first, smallest last. Response field: labels, in requested order.
S, R, Q, P
(S: 9.08, R: 8.44, Q: 7.99, P: 7.34)

---

Target: UniProtKB P29274
Test: cAMP assay in 293A cells stably expressing the adenosine A2A receptor (CGS21680 stimulation, HTRF)
Type: cell-based
Design: expressed in transfected cells; host or cells: 293A cells (Invitrogen, Cat# R705-07) infected with A2A-expressing lentivirus (custom packaged by Biosettia), puromycin selected
Details: 293A-A2AR cells, 0.1% BSA, 1 uM CGS; read-out: cAMP (nM) 0.1% BSA, 1 uM CGS
observed-property: IC50 (nM)

Examples with answers:
Hi! What's the reported IC50 for CCc1nnn(C[C@@H](O)CO)c1COc1nc(N)nc(-c2ccc(F)cc2)c1-c1cc(C)nc(C(F)F)c1 [Example 290] on UniProtKB P29274?
1310

Write down the reported IC50 of Cc1cc(-c2c(OCc3cccc(N4CC[C@H](C(=O)O)C4)n3)nc(N)nc2-c2ccc(F)cc2)cc(C(F)F)n1 [Example 309] , test system: UniProtKB P29274.
1370

Recall the recorded IC50 for Cc1cc(-c2c(OCc3cc4ccccc4cn3)nc(N)nc2-c2ccc(F)cc2)cc(C(F)F)n1 [Example 382] with UniProtKB P29274 and state it.
955

[P] CCc1c(COc2nc(N)nc(-c3ccc(F)cc3)c2-c2cc(C)nc(C(F)F)c2)nnn1C[C@@H](O)CO [Example 289]
[Q] Cc1cc(-c2c(OCCc3cccnc3)nc(N)nc2-c2ccc(F)cc2)cc(C(F)F)n1 [Example 299]
Pick the one with the larger IC50: P vs Q Select an item and report its label.
P
(P: 2090 nM, Q: 1110 nM)

---

Biological target: Adenosine A2A receptor (Homo sapiens, UniProt P29274)
Experiment: Adenosine A2A receptor competitive binding assay (Tag-lite HTRF)
Details: Tag-lite adenosine A2A receptor ligand binding, 2 h room temperature; values separated by / are repeat determinations
observed-property: IC50 (nM)

Some entries whose results are on file:
Find the measured IC50: item COC(=O)NCCOc1nc(N)nc(-c2ccccc2)c1-c1cc(C)nc(C(F)(F)F)c1 [Example 119] , target or system Adenosine A2A receptor (Homo sapiens, UniProt P29274).
16.8

Lab note: need IC50 with Adenosine A2A receptor (Homo sapiens, UniProt P29274) for entry Cc1cc(-c2c(OCCN(C)c3nccc(N)n3)nc(N)nc2-c2ccc(F)cc2)cc(C(F)F)n1 [Example 147] , please look it up.
13

So what IC50 did Cc1cc(-c2c(OCCN(C)c3cnccn3)nc(N)nc2-c2ccc(F)cc2)cc(C(F)F)n1 [Example 152] get with Adenosine A2A receptor (Homo sapiens, UniProt P29274)?
5.1

Find IC50 (Adenosine A2A receptor (Homo sapiens, UniProt P29274)) for the entry Cc1cc(-c2c(OCC(=O)N(C)c3ccccc3)nc(N)nc2-c2ccc(F)cc2)cc(C(F)F)n1 [Example 98]
5.9

Missing value: IC50, Adenosine A2A receptor (Homo sapiens, UniProt P29274), entry CNCc1nc(N)nc(-c2ccccc2)c1-c1cc(C)nc(C(F)(F)F)c1 [Example 22] . Fill in?
1780

[A] CCN(CCOc1nc(N)nc(-c2ccc(F)cc2)c1-c1cc(C)nc(C(F)F)c1)c1ncccn1 [Example 146]
[B] Cc1cc(-c2c(OCC3CNC3)nc(N)nc2-c2ccc(F)cc2)cc(C(F)F)n1 [Example 75]
Please indicate which item has the smaller measured IC50: A versus B // return label of chosen record
A

[A] Cc1cc(-c2c(OCCN3CCOCC3)nc(N)nc2-c2ccc(F)cc2)cc(C(F)F)n1 [Example 36]
[B] CCN(C(=O)COc1nc(N)nc(-c2ccc(F)cc2)c1-c1cc(C)nc(C(F)F)c1)c1ccccc1 [Example 90]
Identify the entry with the smaller IC50: A or B . Output the label that corresponds to your choice.
A
(A: 11.4 nM, B: 23 nM)

[I] CCN(CC)C(=O)COc1nc(N)nc(-c2ccccc2)c1-c1cc(C)nc(C(F)(F)CC)c1 [Example 17]
[II] Cc1cc(-c2c(NCc3cccc(CO[C@H]4CCOC4)n3)nc(N)nc2-c2ccccc2)cc(C(F)(F)F)n1 [Example 4]
Kindly identify the item with the lower IC50 figure among these two: I and II API: response body contains the label of the selected item.
I
(I: 9.01 nM, II: 139 nM)

---

Target: Adenosine A2A receptor (Homo sapiens, UniProt P29274)
Assay: cAMP assay in 293A cells stably expressing the adenosine A2A receptor (CGS21680 stimulation, HTRF)
Assay type: cell-based
Set-up: expressed in transfected cells; host or cells: 293A cells (Invitrogen, Cat# R705-07) infected with A2A-expressing lentivirus (custom packaged by Biosettia), puromycin selected
Details: 293A-A2AR cells, 0.1% BSA, 1 uM CGS; values separated by / are repeat determinations; read-out: cAMP (nM) 0.1% BSA, 1 uM CGS
observed-property: IC50 (nM)

What value of IC50 has been recorded for this entry: `Cc1cc(-c2c(OCCNc3ccccc3)nc(N)nc2-c2ccc(F)cc2)cc(C(F)F)n1`
936

[I] CNS(=O)(=O)NCCOc1nc(N)nc(-c2ccc(F)cc2)c1-c1cc(C)nc(C(F)F)c1
[II] CCN(CCOc1nc(N)nc(-c2ccc(F)cc2)c1-c1cc(C)nc(C(F)F)c1)C(=O)NC
[III] Cc1cc(-c2c(OCCN(C)c3cnccn3)nc(N)nc2-c2ccc(F)cc2)cc(C(F)F)n1
# ascending order, key=IC50 # answer = labels listed in requested order
III, II, I
